# assay notes: NCI Yeast Anticancer Drug Screen. Data for the mlh1 rad18 strain (AID 175)
# experimental conditions: S. cerevisiae mlh1 rad18 strain growth inhibition; at 50.0 µM; hits give high values
# Protocol: Growth inhibition of yeast strains with defined genetic alterations is measured as a screen for potential anti-cancer activity. Selected strains with alterations in DNA damage repair or cell cycle control were exposed to compounds and growth inhibition was measured relative to vehicle treated controls. The strain used in this assay is mlh1 rad18
Compounds without any hit were thinned out: in the full panel of roughly 79,000, 15% have a hit.
property label: growth inhibition (%)

> print(dat)
                                    compound     property.label  unit.descriptor  recorded.measurement
 1  CCN1CCCC(C#N)(c2ccccc2)CC1 (stereo not drawn)  growth inhibition                %                  -4.1
 2  C(#[C][Sn]([c]1ccccc1)([c]1ccccc1)[c]1ccccc1)c1ccccc1  growth inhibition                %                  98.6
 3                         CCOc1cc(N)nc(N)n1  growth inhibition                %                 -7.75
 4           Cc1ccc(N=Nc2c(N)ccc3ccccc23)cc1  growth inhibition                %                  86.5
 5  CCCCOC(=O)/C(=C\c1cccc(OC)c1)NC(=O)c1ccccc1  growth inhibition                %                  34.6
 6                    C(=C\c1csnn1)/c1cccnc1  growth inhibition                %                  5.75
 7  COc1cc([N+](=O)[O-])ccc1C(=O)NC(CCC(=O)O)C(=O)O (stereo not drawn)  growth inhibition                %                 -22.1
 8                          CCOC/N=C(/N)NC#N  growth inhibition                %                  33.1
 9                   CC(=O)OCc1cocc1COC(C)=O  growth inhibition                %                   8.3
10       COc1ccc(OC)c(/C=C/c2cnnc3ccccc23)c1  growth inhibition                %                    32
11                    CCc1c2ccccc2cc2ccccc12  growth inhibition                %                 -5.95
12         NCCCC(N)C(=O)O (stereo not drawn)  growth inhibition                %                 -19.7
13        Cc1ccccc1Nc1n[nH]c(=O)n1-c1ccccc1C  growth inhibition                %                   2.9
